# Species on record: Bos taurus
# test: Displacement of [3H]colchicine from bovine brain tubulin at 1 uM by scintillation counting
readout_label: Activity (%)
Dear colleague, please return just the value in %, with no unit written.

smiles_notation	unit_abbrev	Activity
COc1ccc(Sc2cc(OC)c(OC)c(OC)c2)cc1	%	56
COc1ccc(/C=C/c2cc(OC)c(OC)c(OC)c2)cc1	%	74

Input line: Using the record for COc1ccc(C(=O)c2cc(OC)c(OC)c(OC)c2)cc1O , report its Activity.
Output line: 70

Input line: Quick one: Activity for COc1ccc(CCc2cc(OC)c(OC)c(OC)c2)cc1O ?
Output line: 49

Input line: Look up Activity: COc1ccc(/C=C/c2cc(OC)c(OC)c(OC)c2)cc1O
Output line: 85

---

Recorded Activity, one value per entry.
# Organism: Bos taurus
# test: Displacement of [3H]colchicine from bovine brain tubulin at 50 uM by scintillation counting

Example entries begin here.
compound	Activity
COc1ccc(C(=O)c2cc(OC)c(OC)c(OC)c2)cc1	95%
COc1ccc([S+]([O-])c2cc(OC)c(OC)c(OC)c2)cc1 (stereo unspecified)	41%
COc1ccc(CCc2cc(OC)c(OC)c(OC)c2)cc1	89%

Input line: Which measured Activity value corresponds to COc1ccc(Cc2cc(OC)c(OC)c(OC)c2)cc1 ?
Output line: 83%

Input line: Param item = COc1ccc(Cc2cc(OC)c(OC)c(OC)c2)cc1O ; retrieve measured Activity.
Output line: 91%

Input line: Look up Activity: COc1ccc(S(=O)(=O)c2cc(OC)c(OC)c(OC)c2)cc1
Output line: 53%

---

Catalogue of Activity values
# Species on record: Bos taurus
# test: Displacement of [3H]colchicine from bovine brain tubulin at 5 uM by scintillation counting
Give your result in % as a bare value.

As a guide, the following entries are already answered.
smiles_notation	recorded_value
COc1ccc(C(=O)c2cc(OC)c(OC)c(OC)c2)cc1O	78
COc1ccc(Cc2cc(OC)c(OC)c(OC)c2)cc1O	44
COc1ccc(Cc2cc(OC)c(OC)c(OC)c2)cc1	36

Input line: Form field: reported Activity of COc1ccc(Sc2cc(OC)c(OC)c(OC)c2)cc1
Output line: 89

---

# Test system: HCT-8
# test: Cytotoxicity against human HCT8 cells after 72 hrs by MTT assay
# Assay type: functional, cell-based
# experimental_conditions: HCT-8, 72 h
readout_label: pIC50
As a rule, pIC50 stands for the negative log10 of the concentration, concentration in M.

Here is how some compounds turned out for pIC50.
compound	readout_label	recorded_value
COc1ccc(Sc2cc(OC)c(OC)c(OC)c2)cc1	pIC50	7.40
COc1ccc(S(=O)(=O)c2cc(OC)c(OC)c(OC)c2)cc1	pIC50	4.91

Input line: Please report the recorded pIC50 for COc1ccc([S+]([O-])c2cc(OC)c(OC)c(OC)c2)cc1 (stereo not drawn) .
Output line: 6.33

---

# Species on record: Bos taurus
# test: Displacement of [3H]colchicine from bovine brain tubulin at 5 uM by scintillation counting
Entry flag: 1 if Activity reaches 50%; 0 if it does not.

Known results for compounds:
compound	class
COc1ccc(/C=C/c2cc(OC)c(OC)c(OC)c2)cc1	1
COc1ccc([S+]([O-])c2cc(OC)c(OC)c(OC)c2)cc1 (stereo unspecified)	0
COc1ccc(S(=O)(=O)c2cc(OC)c(OC)c(OC)c2)cc1	0

Please turn your attention to the following entry.
Input line: Test whether the compound COc1ccc(CCc2cc(OC)c(OC)c(OC)c2)cc1O records Activity of 50% or higher.
Output line: 1
